The origin of these recorded values is patent US20040043420A1.

measuredTarget: androgen receptor (Homo sapiens, UniProt P10275)
Sequence (P10275 1-920): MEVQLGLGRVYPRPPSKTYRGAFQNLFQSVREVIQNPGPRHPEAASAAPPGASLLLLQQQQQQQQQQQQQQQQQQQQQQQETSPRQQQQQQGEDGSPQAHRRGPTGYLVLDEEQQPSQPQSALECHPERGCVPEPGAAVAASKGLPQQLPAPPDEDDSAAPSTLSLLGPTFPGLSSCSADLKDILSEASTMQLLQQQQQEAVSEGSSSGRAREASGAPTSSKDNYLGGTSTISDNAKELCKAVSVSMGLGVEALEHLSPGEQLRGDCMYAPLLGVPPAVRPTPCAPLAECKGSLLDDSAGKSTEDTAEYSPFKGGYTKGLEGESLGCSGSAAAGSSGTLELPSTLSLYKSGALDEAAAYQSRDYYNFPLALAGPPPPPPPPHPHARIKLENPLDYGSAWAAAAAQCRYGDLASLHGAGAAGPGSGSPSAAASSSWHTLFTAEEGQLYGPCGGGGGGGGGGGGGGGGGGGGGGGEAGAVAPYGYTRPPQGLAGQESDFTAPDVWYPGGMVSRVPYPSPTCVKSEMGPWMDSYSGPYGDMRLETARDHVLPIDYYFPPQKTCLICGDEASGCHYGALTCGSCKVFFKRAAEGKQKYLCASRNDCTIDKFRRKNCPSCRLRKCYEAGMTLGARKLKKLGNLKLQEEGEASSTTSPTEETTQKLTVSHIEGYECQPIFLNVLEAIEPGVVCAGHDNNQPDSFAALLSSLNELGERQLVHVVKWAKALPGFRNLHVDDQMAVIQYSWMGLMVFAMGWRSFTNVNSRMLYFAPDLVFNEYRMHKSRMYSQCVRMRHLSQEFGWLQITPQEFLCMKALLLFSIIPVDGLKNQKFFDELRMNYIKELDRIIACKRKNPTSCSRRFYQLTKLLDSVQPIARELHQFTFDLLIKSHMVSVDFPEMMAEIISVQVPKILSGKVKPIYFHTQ
Format: cell-based
Parameters: expressed in transfected cells
measurementSetup: no compound
measure: Mammalian Cell Specificity Graph (FIG. 4): no compound (Relative Light Units)
Use Relative Light Units as the unit, but write only the number.

Examples with their reported Mammalian Cell Specificity Graph (FIG. 4): no compound follow.
EFQQCMCAEVKSWLGGSLDLOPS* [B8E9] : 0.2091
EFRSSVFEQMYLCTGGSLDLOPS* [B5G11] : 0.05028

// Mammalian Cell Specificity Graph (FIG. 4): no compound lookup, substance = EFHSRLRVEVVSWGIGSTCSQANSGRISYDL* [B8H3] , result: 0.1316

// Mammalian Cell Specificity Graph (FIG. 4): no compound lookup, substance = HPTHSSRLWELLMEATPTM [D30] , result: 0.03854
